Please respond with reported chromatographic logP for every item in the list.
assay: log P determination by HPLC on reversed-phase columns (C 18), acidic range; type: physicochemical; details: pH 2.7, LOGP (HCOOH)
Field format: numeric only.

stdin: Record request: chromatographic logP value, item "Cc1cc(C(N)=S)cc(C(=O)NC(C)(C)C)c1NC(=O)c1cc(Cn2nnc(C(F)(F)F)n2)nn1-c1ncccc1Cl"
stdout: 2.89

stdin: What do you get for "Cc1cc(C(N)=O)cc(C(=O)NC(C)C)c1NC(=O)c1cc(Cn2nnc(C(F)(F)F)n2)nn1-c1ncccc1Cl" ?
stdout: 2.27

stdin: What do you get for CC(=O)c1cc(C)c(NC(=O)c2cc(Cn3nnc(C(F)(F)F)n3)nn2-c2ncccc2Cl)c(C(=O)NC(C)C2CC2)c1 (stereo not shown) ?
stdout: 3.23

stdin: What do you get for "CC(=O)c1cc(C)c(NC(=O)c2cc(Cn3nnc(C(F)(F)F)n3)nn2-c2ncccc2Cl)c(C(=O)NC(C)(C)C)c1" ?
stdout: 2.87

stdin: What do you get for "COC(=O)c1cc(C)c(NC(=O)c2cc(Cn3nnc(C(F)(F)F)n3)nn2-c2ncccc2Cl)c(C(=O)NC(C)C)c1" ?
stdout: 3.21

stdin: What do you get for "CNC(=O)c1cc(C(C)=O)cc(C)c1NC(=O)c1cc(Cn2nnc(C(F)(F)F)n2)nn1-c1ncccc1Cl" ?
stdout: 2.53

stdin: What do you get for "Cc1cc(C2OCCO2)cc(C(=O)NC(C)(C)C)c1NC(=O)c1cc(Cn2nnc(C(F)(F)F)n2)nn1-c1ncccc1Cl" ?
stdout: 3.22

====

experiment: log P determination by HPLC on reversed-phase columns (C 18), acidic range; type: physicochemical; details: reversed-phase C18 HPLC column, pH 2.7, HPLC reversed-phase C 18, pH 2.7, 0.1% aqueous formic acid / acetonitrile; read-out: LOGP (HCOOH)
Please respond with reported chromatographic logP for every item in the list.
Field format: numeric only.

stdin: Record request: chromatographic logP value, item Cc1cc(C(=O)OCC2CC2)cc(C(=O)NC(C)(C)C)c1NC(=O)c1cc(Cn2nnc(C(F)(F)C(F)(F)F)n2)nn1-c1ncccc1Cl [Compound 28]
stdout: 4.54

stdin: What do you get for Cc1cc(C(=O)OCC2CCC2)cc(C(=O)NC(C)(C)C)c1NC(=O)c1cc(Cn2nnc(C(F)(F)F)n2)nn1-c1ncccc1Cl [Compound 29] ?
stdout: 4.62

stdin: What do you get for CNC(=O)c1cc(C(=O)OC)cc(C)c1NC(=O)c1cc(Cn2nnc(C(F)(F)F)n2)nn1-c1ccccc1Cl [Compound 30] ?
stdout: 3.28

stdin: What do you get for CC(=O)c1cc(C)c(NC(=O)c2cc(Cn3nnc(C(F)(F)F)n3)nn2-c2ccccc2Cl)c(C(=O)NC(C)C)c1 [Compound 13] ?
stdout: 3.46

stdin: What do you get for COC(=O)c1cc(C)c(NC(=O)c2cc(Cn3nnc(C(F)(F)C(F)(F)F)n3)nn2-c2ncccc2Cl)c(C(=O)NC(C)(C)C)c1 [Compound 27] ?
stdout: 3.85

stdin: What do you get for CC(=O)c1cc(C)c(NC(=O)c2cc(Cn3nnc(C(F)(F)F)n3)nn2-c2ccccc2Cl)c(C(=O)NC(C)(C)C)c1 [Compound 12] ?
stdout: 3.76

====

experiment: log P determination by HPLC on reversed-phase columns (C 18), acidic range; assay type: physicochemical; conditions: reversed-phase C18 HPLC column, pH 2.7, HPLC reversed-phase C 18, pH 2.7, 0.1% aqueous formic acid / acetonitrile; read-out: LOGP (HCOOH)
Please respond with reported chromatographic logP for every item in the list.
Field format: numeric only.

stdin: Record request: chromatographic logP value, item CC(=O)c1cc(C)c(NC(=O)c2cc(Cn3nnc(C(F)(F)F)n3)nn2-c2ccccc2Cl)c(C(=O)NC(C)C2CC2)c1 (stereo not drawn)
stdout: 3.74

stdin: What do you get for "Cc1cc(C(=O)OC2CCC2)cc(C(=O)NC(C)(C)C)c1NC(=O)c1cc(Cn2nnc(C(F)(F)F)n2)nn1-c1ncccc1Cl" ?
stdout: 4.37

stdin: What do you get for "CCNC(=O)c1cc(C(C)=O)cc(C)c1NC(=O)c1cc(Cn2nnc(C(F)(F)F)n2)nn1-c1ccccc1Cl" ?
stdout: 3.27

stdin: What do you get for "CNC(=O)c1cc(-n2ccc(C(F)(F)F)n2)cc(C)c1NC(=O)c1cc(Cn2nnc(C(F)(F)C(F)(F)F)n2)nn1-c1ncccc1Cl" ?
stdout: 3.86

stdin: What do you get for "Cc1cc(C2OCC(C)(C)CO2)cc(C(=O)NC(C)(C)C)c1NC(=O)c1cc(Cn2nnc(C(F)(F)F)n2)nn1-c1ncccc1Cl" ?
stdout: 4.07

stdin: What do you get for "CNC(=O)c1cc(C(N)=S)cc(C)c1NC(=O)c1cc(Cn2nnc(C(F)(F)F)n2)nn1-c1ccccc1Cl" ?
stdout: 2.65
